- Tested on: HCC827
- protocolDescription: Comparison with 1st generation inhibitors against a lung cancer cell line (HCC827)
- Assay type: cell-based
- assaySetup: Homo sapiens, read-out: Biochemical IC50
Where a name gives a salt, the structure may show the parent alone.
measurementType: pIC50
Scale for pIC50: -log10 of concentration given in mol/L; no unit attached.

Fc1ccc(Nc2ncnc3cc(OCCOC(F)F)c(OCCOC(F)F)cc23)c(F)c1Cl [Compound 2D•HCl]    7.77

Let's switch to this molecule now.
Reported pIC50 for HCC827, given Fc1c(Nc2ncnc3cc(OCCOC(F)F)c(OCCOC(F)F)cc23)ccc(Cl)c1Cl [Compound 2A•HCl] ?
7.68

---

- protocolDescription: Human liver microsomal stability
- Assay type: in vitro ADME
- assaySetup: stability in pooled human (50 donors) liver microsomes 0.5 mg/ml, compound 1 μM, parent compound by LC/MS
measurementType: HLM (30 min) (%)
Report the value in % with no unit label.

Fc1ccc(Nc2ncnc3cc(OCCOC(F)F)c(OCCOC(F)F)cc23)cc1Cl    88.5

Need HLM (30 min) of COc1cc2ncnc(Nc3cccc(Cl)c3F)c2cc1OCCOC(F)F , thanks.
19.7

Need HLM (30 min) of C#Cc1cccc(Nc2ncnc3cc(OCCOC(F)F)c(OCCOC(F)F)cc23)c1 , thanks.
96.4

Need HLM (30 min) of C#Cc1cccc(Nc2ncnc3cc(OCCOC)c(OCCOC)cc23)c1 [Erlotinib, reference compound] , thanks.
75.5

Need HLM (30 min) of Fc1c(Nc2ncnc3cc(OCCOC(F)F)c(OCCOC(F)F)cc23)ccc(Cl)c1Cl , thanks.
90.7

---

Quick reference for Papp B→A at 120 min, 5 μM among some molecules
- studySystem: P-gp (Homo sapiens, UniProt P08183)
- Construct: host or cells: Caco-2 (C2BBe1)
- Sequence (P08183 whole entry): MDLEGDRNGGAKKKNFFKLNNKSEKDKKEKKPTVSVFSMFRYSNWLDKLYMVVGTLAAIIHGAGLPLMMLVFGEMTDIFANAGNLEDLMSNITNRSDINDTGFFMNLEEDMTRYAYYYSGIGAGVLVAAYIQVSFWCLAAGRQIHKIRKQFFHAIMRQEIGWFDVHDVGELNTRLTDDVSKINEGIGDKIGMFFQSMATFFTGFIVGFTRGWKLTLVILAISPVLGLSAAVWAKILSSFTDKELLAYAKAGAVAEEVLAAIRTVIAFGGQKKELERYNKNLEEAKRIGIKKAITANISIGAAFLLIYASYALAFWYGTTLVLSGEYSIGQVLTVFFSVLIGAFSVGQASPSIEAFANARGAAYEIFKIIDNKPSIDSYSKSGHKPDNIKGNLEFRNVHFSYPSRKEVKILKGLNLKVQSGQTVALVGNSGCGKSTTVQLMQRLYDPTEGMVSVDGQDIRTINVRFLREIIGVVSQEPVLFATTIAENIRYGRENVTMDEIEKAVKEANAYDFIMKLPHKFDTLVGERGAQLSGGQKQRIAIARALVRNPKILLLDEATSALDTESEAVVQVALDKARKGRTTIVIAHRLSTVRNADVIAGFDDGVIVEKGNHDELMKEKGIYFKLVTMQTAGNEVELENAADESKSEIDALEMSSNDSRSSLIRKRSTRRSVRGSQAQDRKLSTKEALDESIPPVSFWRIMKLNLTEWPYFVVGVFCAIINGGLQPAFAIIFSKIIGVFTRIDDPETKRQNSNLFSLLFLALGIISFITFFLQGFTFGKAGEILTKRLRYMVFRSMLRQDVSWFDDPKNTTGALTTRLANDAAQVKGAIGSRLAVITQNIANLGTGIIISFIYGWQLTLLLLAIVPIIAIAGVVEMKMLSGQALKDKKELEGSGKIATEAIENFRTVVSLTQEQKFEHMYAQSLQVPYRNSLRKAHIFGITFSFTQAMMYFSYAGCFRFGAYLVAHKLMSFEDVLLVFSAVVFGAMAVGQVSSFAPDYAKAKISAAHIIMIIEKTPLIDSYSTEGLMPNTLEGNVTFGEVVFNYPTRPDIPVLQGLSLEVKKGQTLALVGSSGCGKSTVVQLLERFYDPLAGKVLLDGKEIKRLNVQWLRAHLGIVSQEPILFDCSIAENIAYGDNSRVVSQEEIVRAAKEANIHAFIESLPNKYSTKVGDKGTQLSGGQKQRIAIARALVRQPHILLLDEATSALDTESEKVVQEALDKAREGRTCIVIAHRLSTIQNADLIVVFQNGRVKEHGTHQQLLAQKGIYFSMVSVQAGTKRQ
- protocolDescription: Evaluation of P-gp efflux in Caco-2 cell monolayers;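 note: Caco-2 monolayers dosed apically or basolaterally with test compound at 5 µM in HBSS with HEPES and glucose, 37 °C, donor and receiver sampled after 120 min, LC/MS peak areas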
- Type: in vitro ADME
- assaySetup: pH 7.4, Caco-2, Verapamil 0 μM
Where a name gives a salt, the structure may show the parent alone.
Report the value in ×10⁻⁶ cm/s with no unit label.

# example entries with known answers
Fc1ccc(Nc2ncnc3cc(OCCOC(F)F)c(OCCOC(F)F)cc23)c(F)c1Cl [Compound 2D•HCl]    2.33
C#Cc1cccc(Nc2ncnc3cc(OCCOC)c(OCCOC)cc23)c1 [Erlotinib•HCl]    13.9
CC(C)NCC(O)COc1cccc2ccccc12 (centres unmarked)    16.3
C[C@H]1O[C@@H](O[C@H]2[C@@H](O)C[C@H](O[C@H]3[C@@H](O)C[C@H](O[C@H]4CC[C@@]5(C)[C@H](CC[C@@H]6[C@@H]5C[C@@H](O)[C@]5(C)[C@@H](C7=CC(=O)OC7)CC[C@]65O)C4)O[C@@H]3C)O[C@@H]2C)C[C@H](O)[C@@H]1O    15.8

Let's switch to this molecule now.
Need Papp B→A at 120 min, 5 μM of Fc1c(Nc2ncnc3cc(OCCOC(F)F)c(OCCOC(F)F)cc23)ccc(Cl)c1Cl [Compound 2A•HCl] , thanks.
0.35

---

Quick reference for IC50 among some molecules
- studySystem: EGFR (Homo sapiens, UniProt P00533)
- Construct: purchased Reaction Biology
- Sequence (P00533 25-1210): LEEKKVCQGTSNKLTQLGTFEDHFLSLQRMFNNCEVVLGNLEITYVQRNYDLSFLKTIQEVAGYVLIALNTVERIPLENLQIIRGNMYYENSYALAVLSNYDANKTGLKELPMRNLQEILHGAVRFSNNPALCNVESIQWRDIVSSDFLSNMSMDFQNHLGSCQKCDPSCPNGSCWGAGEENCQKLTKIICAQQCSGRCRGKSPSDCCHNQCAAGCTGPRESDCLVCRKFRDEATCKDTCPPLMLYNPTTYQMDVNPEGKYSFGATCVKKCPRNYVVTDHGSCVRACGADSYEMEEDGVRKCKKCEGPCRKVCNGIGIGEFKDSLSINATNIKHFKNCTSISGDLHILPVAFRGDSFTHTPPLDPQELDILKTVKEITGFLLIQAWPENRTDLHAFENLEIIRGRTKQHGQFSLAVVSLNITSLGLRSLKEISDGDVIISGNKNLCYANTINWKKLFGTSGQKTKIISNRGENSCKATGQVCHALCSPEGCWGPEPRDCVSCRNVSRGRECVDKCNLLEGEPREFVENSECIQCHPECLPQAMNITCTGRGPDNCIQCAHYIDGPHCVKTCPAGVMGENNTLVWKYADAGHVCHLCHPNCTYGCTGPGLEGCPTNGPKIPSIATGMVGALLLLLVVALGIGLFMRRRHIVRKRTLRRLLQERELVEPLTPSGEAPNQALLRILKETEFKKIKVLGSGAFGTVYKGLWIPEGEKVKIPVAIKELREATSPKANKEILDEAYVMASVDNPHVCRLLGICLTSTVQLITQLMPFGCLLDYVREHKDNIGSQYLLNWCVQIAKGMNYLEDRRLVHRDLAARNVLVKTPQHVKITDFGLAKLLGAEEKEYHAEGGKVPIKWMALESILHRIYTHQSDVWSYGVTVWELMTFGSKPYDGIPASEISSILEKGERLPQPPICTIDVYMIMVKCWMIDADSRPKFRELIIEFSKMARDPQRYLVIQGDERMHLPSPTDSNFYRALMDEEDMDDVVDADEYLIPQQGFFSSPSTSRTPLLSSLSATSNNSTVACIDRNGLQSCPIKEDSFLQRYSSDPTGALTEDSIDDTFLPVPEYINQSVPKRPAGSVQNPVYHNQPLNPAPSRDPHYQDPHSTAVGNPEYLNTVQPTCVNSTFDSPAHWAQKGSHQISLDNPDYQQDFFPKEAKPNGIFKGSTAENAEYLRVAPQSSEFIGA
- protocolDescription: Kinase HotSpot profiling (Reaction Biology), 33P-ATP filter-binding
- Type: biochemical
- assaySetup: WT EGFR
Report the value in nM with no unit label.

C#Cc1cccc(Nc2ncnc3cc(OCCOC(F)F)c(OCCOC(F)F)cc23)c1F [2(Nn)]    0.587
COc1cc2ncnc(Nc3ccc(F)c(Cl)c3F)c2cc1OC(=O)N1CCC[C@H](OC(F)F)C1 [2(Pp)]    0.143
COc1cc2ncnc(Nc3ccc(F)c(Cl)c3F)c2cc1NC(=O)N1CCC(COC(F)F)CC1 [3(A)]    0.0298
COc1cc2ncnc(Nc3ccc(F)c(Cl)c3F)c2cc1OC(=O)N1CCC(OC(F)F)CC1 [2(Oo)]    0.0205

Need IC50 of COc1cc2ncnc(Nc3ccc(F)c(Cl)c3F)c2cc1OC(=O)N1CC[C@@H](COC(F)F)C1 [2(Qq)] , thanks.
0.0138

Need IC50 of COc1cc2ncnc(Nc3ccc(F)c(Cl)c3F)c2cc1OCCCN1CCC(OC(F)F)CC1 [2(q)] , thanks.
0.0434

Need IC50 of COc1cc2ncnc(Nc3ccc(F)c(Cl)c3F)c2cc1NC(=O)N1CC(OC(F)F)C1 [3(B)] , thanks.
0.0125

---

- protocolDescription: Brain concentrations after PO administration in rat, peak at 8 hours (Table 5)
- Format: in vivo
- assaySetup: Sprague-Dawley, brain/plasma, po, 50 mg/kg, Table 5 (8 hours), read-out: Cmax Ratio (Brain/Plasma)
Where a name gives a salt, the structure may show the parent alone.
Quick reference for Kp at 8 h among some compounds
Lab note: record the figure alone, no unit after it.

Fc1c(Nc2ncnc3cc(OCCOC(F)F)c(OCCOC(F)F)cc23)ccc(Cl)c1Cl [Compound 2A•HCl]    1.72

Need Kp at 8 h of Fc1ccc(Nc2ncnc3cc(OCCOC(F)F)c(OCCOC(F)F)cc23)c(F)c1Cl [Compound 2D•HCl] , thanks.
2.07

---

- protocolDescription: Brain concentrations after PO administration in rat, peak at 8 hours (Table 5)
- Assay type: in vivo
- assaySetup: Sprague-Dawley, brain, PO 50 mg/kg, Table 5 (8 hours)
Counter-ions that a name gives are not always drawn.
Quick reference for Tmax among some molecules
Report the value in h with no unit label.

# example entries with known answers
Fc1ccc(Nc2ncnc3cc(OCCOC(F)F)c(OCCOC(F)F)cc23)c(F)c1Cl [Compound 2D•HCl]    8
C#Cc1cccc(Nc2ncnc3cc(OCCOC)c(OCCOC)cc23)c1 [Erlotinib•HCl]    8

Need Tmax of Fc1c(Nc2ncnc3cc(OCCOC(F)F)c(OCCOC(F)F)cc23)ccc(Cl)c1Cl [Compound 2A•HCl] , thanks.
8

---

- protocolDescription: Human liver microsomal stability
- Type: in vitro ADME
- assaySetup: stability in pooled human (50 donors) liver microsomes 0.5 mg/ml, compound 1 μM, parent compound by LC/MS
measurementType: HLM (30 min)
# number then unit; no other words

# example entries with known answers
Fc1cc(Cl)ccc1Nc1ncnc2cc(OCCOC(F)F)c(OCCOC(F)F)cc12 [2(e)]    89.6%
Fc1ccc(Nc2ncnc3cc(OCCOC(F)F)c(OCCOC(F)F)cc23)c(F)c1Cl    83.1%
Fc1cc(F)c(Nc2ncnc3cc(OCCOC(F)F)c(OCCOC(F)F)cc23)c(F)c1    82.1%

Need HLM (30 min) of FC(F)OCCOc1cc2ncnc(Nc3ccc(C(F)(F)F)cc3)c2cc1OCCOC(F)F , thanks.
99.8%

Need HLM (30 min) of FC(F)OCCOc1cc2ncnc(Nc3ccccc3C(F)(F)F)c2cc1OCCOC(F)F [2(Ee)] , thanks.
49.2%

---

- protocolDescription: Brain and plasma concentrations after oral gavage in rat, sampling to 4 hours (Table 4)
- Assay type: in vivo
- assaySetup: male, Sprague-Dawley (SD), brain tissue, PO 50 mg/kg, Table 4 (4 hours)
Where a name gives a salt, the structure may show the parent alone.
measurementType: Tmax (h)
Report the value in h with no unit label.

Fc1ccc(Nc2ncnc3cc(OCCOC(F)F)c(OCCOC(F)F)cc23)c(F)c1Cl [Compound 2D•HCl]    4
Fc1c(Nc2ncnc3cc(OCCOC(F)F)c(OCCOC(F)F)cc23)ccc(Cl)c1Cl [Compound 2A•HCl]    4

Let's switch to this compound now.
Need Tmax of C#Cc1cccc(Nc2ncnc3cc(OCCOC)c(OCCOC)cc23)c1 [Erlotinib, reference compound] , thanks.
4
